# targetSystem: human cathepsin L (Homo sapiens, UniProt P07711)
# Sequence (P07711 114-333): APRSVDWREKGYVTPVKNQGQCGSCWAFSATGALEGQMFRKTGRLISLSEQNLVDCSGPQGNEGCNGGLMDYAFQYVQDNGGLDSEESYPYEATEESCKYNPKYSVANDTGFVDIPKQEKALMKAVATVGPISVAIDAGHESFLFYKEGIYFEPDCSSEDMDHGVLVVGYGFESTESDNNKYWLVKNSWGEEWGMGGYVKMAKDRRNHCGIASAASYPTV
# testMethodNotes: biochemical
# details: k4Ki/k3 ∼ Ki*, calculated from the Eq. 3 parameters
readoutLabel: Ki

Which Ki value is on record for O=C(N[C@@H](Cc1ccccc1)C(=O)N[C@H]1Cc2ccccc2OC1O)OCc1ccccc1 (stereo partly drawn) [Compound 2, Cbz-Phe-o-Tyr-CHO] ?
~0.2 µM

###

# Test system: SARS-CoV-2-infected Vero E6 cells
# testMethodNotes: Micro-neutralization assay, virus-induced cytopathic effect in Vero E6 cells
# Assay type: cell-based
# details: Severe acute respiratory syndrome coronavirus 2, Vero C1008, repeat of the experiment with a different sample of 1; read-out: Anti-CoV-2 EC50 Vero E6 Cells
Residues, ends and D or L forms follow the SMILES beside them. *: point of attachment. Cbz = O=C(OCc1ccccc1)*
readoutLabel: EC50 (µM)
Numbers only, in µM.

Would you kindly share the measured EC50 for O=C[C@H](Cc1ccccc1)NC(=O)[C@H](Cc1ccccc1)NC(=O)OCc1ccccc1 [Compound 1, Cbz-Phe-Phe-CHO] (Cbz-Phe-Phe-aldehyde) ?
7.5
